B1: TPR t1 (parent)
chain: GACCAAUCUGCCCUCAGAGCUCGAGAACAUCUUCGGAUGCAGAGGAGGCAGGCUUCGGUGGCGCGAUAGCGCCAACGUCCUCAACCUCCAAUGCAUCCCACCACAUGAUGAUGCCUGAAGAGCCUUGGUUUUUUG

variants of: B1; experiment: polymerase ribozyme fitness, log enrichment relative to wild type (log ratio); higher = more active; in vitro selection for triplet polymerase activity
Kind request: treat -2 as inclusive, so polymerase ribozyme fitness (log ratio) at -2 or higher is class 1, anything lower is class 0.

> print(dat)
                                mutation  class.label
 1                   G44A A46U A91G U92A      class 0
 2                       C53G C89U C115U      class 0
 3                            A41C G107A      class 0
 4                             C13G G47U      class 0
 5                   A5C A27G G63C A121G      class 1
 6                             C53U C73A      class 1
 7       U9G C12A G57U A111U C114A U133A      class 0
 8                      A68U U109A U129G      class 0
 9                            G47A C102G      class 0
10             C28A C40G G44C G51A U112A      class 0
11                   U9A A50G C88G A108U      class 0
12                        A26U G60U U78C      class 0
13                            C40U G110C      class 0
14                             G39A G48C      class 1
15                     G107A U109A A119G      class 0
16                             C56A G57C      class 1
17              A18U C22G G58U U59G U87G      class 0
18              C70U C82U A83C C89A G93A      class 0
19                        C8G G60A C104U      class 1
20             C8G A46G A83G U126G G127A      class 1
21                       G51U C73U U112C      class 1
22                            C72U G135C      class 1
23                           G120C A121U      class 1
24                             C20A C56A      class 0
25                            C70U C124G      class 1
26             C11A C40U G48C C79U C102U      class 0
27                        A5G C40A G120U      class 1
28                         C8A G10A G47A      class 1
29                 C40U C97U U106A C115A      class 1
30                             C22U A95G      class 0
31                 C56U C86U C124U U131A      class 1
32                       G77A U78C C115G      class 0
33                         U9G C11G G45C      class 0
34                        G36C G63U C98U      class 0
35             U14C A18G G63A U78C G117U      class 0
36  G19U U55G C70U U87G A95C U112C C114A      class 1
37             A18C G39C A41U G60C C123U      class 0
38                             A24C G61A      class 0
39             A18G C72G A84G U92A C115A      class 0
40                            C72U U129G      class 1
41                        A5G A27U A111G      class 0
42                        G44A G52A C56U      class 1
43       U9G C72U C94A G110A G113U A121G      class 0
44            G45A C73U C97U A103U G120C      class 0
45                             A43C C70U      class 0
